Test: Inhibitory activity against P-selectin using cell-cell assay
Rule for this label: label 1 means IC50 is less than 10 µM; label 0 means IC50 is at least 10 µM.

Illustrative cases are given below, each with its answer.
compound: CCCCCCCCCCCCNC(=O)C=Cc1ccc(-c2[nH]c(-c3ccc(-c4cc(C(=O)O)on4)cc3)nc2-c2ccc(C=CC(=O)O)cc2)cc1
qualitative_label: label 0

compound: CCCCCCCCCCCCCCCCNC(=O)C=Cc1ccc(-c2[nH]cnc2-c2ccc(C=CC(=O)O)cc2)cc1
qualitative_label: label 0

Ask: Please check: IC50 for CCCCCCCCCCCCCCCCNC(=O)C=Cc1ccc(-c2[nH]c(-c3ccc(C4=NOC(C(=O)O)C4)cc3)nc2-c2ccc(C=CC(=O)O)cc2)cc1 (stereo not given) , strictly under 10 µM or not?
Reply: label 0

Ask: O=C(O)C=Cc1ccc(-c2nc(-c3ccc(C4=NOC(C(=O)O)C4)cc3)c(-c3ccc(C=CC(=O)NCCCc4ccccc4)cc3)[nH]2)cc1 (stereo not given) , same question.
Reply: label 0

Ask: Request: `CCCCCCCCCCCCCCCCNC(=O)C=Cc1ccc(-c2[nH]c(-c3ccc(-c4cc(C(=O)O)on4)cc3)nc2-c2ccc(C=CC(=O)O)cc2)cc1`
Reply: label 1
